// provenance: patent US20250368648A1

Tested on: THP1 cells
Assay: Combination drug screening, Cell Titer Glo, THP1 cells
Settings: sum score; listed as compound in combination with Compound 106; THP1 cells; 10 × 10 dataset; 48 hours
Would you mind telling me the reported Excess HSA Score of each entry?
Numbers only.

// worked examples, Excess HSA Score included
Return reported Excess HSA Score; argument: CCN(C(=O)c1cc(F)ccc1Oc1cncnc1N1CC2(CCN(C[C@H]3CC[C@H](NS(=O)(=O)CC)CC3)CC2)C1)C(C)C
375.4

Try this molecule too: NC1(C(=O)N[C@@H](CCO)c2ccc(Cl)cc2)CCN(c2nc[nH]c3nccc2-3)CC1
−134.3

Let us now turn to C[C@@H]1OCC2(CCN(c3cnc(Sc4ccnc(N)c4Cl)c(N)n3)CC2)[C@@H]1N
−22.86

Now give it for CC(=O)c1c(C)c2cnc(Nc3ccc(N4CCNCC4)cn3)nc2n(C2CCCC2)c1=O too.
−590.5

Then what about the molecule COc1cc(F)ccc1-c1cc(Nc2cc(CS(C)(=N)=O)ccn2)ncc1F (single isomer, unassigned; (+)) [(+)-BAY-1251152, BAY1251152] ?
−427.1

Let us move to another entry and its Excess HSA Score.
What does the record list as Excess HSA Score for C[C@]12C=CC(=O)C=C1CC[C@@H]1[C@@H]2[C@@H](O)C[C@@]2(C)[C@H]1CC[C@]2(O)C(=O)CO ?
274.3

====

Molecular target: IRAK4 (Homo sapiens, UniProt Q9NWZ3)
Sequence (Q9NWZ3 whole entry): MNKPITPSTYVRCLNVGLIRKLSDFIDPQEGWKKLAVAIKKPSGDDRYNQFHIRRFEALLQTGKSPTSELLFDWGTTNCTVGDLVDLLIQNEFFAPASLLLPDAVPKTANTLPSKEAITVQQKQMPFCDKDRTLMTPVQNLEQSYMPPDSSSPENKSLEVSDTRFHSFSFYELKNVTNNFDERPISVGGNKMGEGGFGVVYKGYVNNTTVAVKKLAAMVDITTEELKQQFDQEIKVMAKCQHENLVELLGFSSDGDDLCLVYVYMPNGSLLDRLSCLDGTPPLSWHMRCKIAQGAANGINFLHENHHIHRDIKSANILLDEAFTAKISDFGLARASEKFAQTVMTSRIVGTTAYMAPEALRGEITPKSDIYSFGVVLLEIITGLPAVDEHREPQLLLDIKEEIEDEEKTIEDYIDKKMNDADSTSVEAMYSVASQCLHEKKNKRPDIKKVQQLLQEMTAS
Assay: RBC HotSpot Kinase Assay, IRAK4
Type: biochemical
Design: purchased RBC (Reaction Biology) HotSpot assay
Conditions: HotSpot functional assay, isolated kinase enzyme, 33P-ATP
Excerpt: This assay uses the isolated kinase enzyme. This assay is very useful for determining competition of the inhibitor for ATP and/or substrates and for measuring the kinetics of enzyme inhibition. […] Unlike kinase binding assays that measure competition for ATP, the HotSpot Kinase Assay is a functional assay that measures catalytic activity; as such it measures relative functional potency regardless of the mechanism of enzyme inhibition. […]
Exam item: assign condition met to entries whose IC50 is below 30 nM and condition not met to entries at or above 30 nM. Note that a value of exactly 30 nM receives condition not met.

Please indicate whether the reported IC50 of COc1cc2ncc(-c3nc(N[C@@H]4CCCNC4)c(F)cc3F)n2nc1C12CC(C1)C2 [Compound 65a] is strictly below 30 nM.
condition met

We next turn to a different compound, shown below.
Problem: For the compound COc1cc2ncc(-c3nc(N[C@H]4CNCC[C@@H]4F)c(F)cc3F)n2nc1C1CC2(CCC2)C1 [Compound 10a] , is IC50 under 30 nM?
condition met

====

Test system: THP1 cells
Test: Combination drug screening, Cell Titer Glo, THP1 cells;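 note: luminescence read out in 1536-well plates seeded with 500 THP1 cells per well, each drug spanning a 10-point concentration range in the combination matrix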
Conditions: sum score; listed as compound in combination with Compound 46a; THP1 cells; 10 × 10 dataset; 48 hours
Assign class by Excess HSA Score: not lower than 200 means Criterion met; lower than 200 means Criterion not met.

Answer whether Excess HSA Score of NC1(C(=O)N[C@@H](CCO)c2ccc(Cl)cc2)CCN(c2nc[nH]c3nccc2-3)CC1 is greater than or equal to 200.
Criterion not met

Moving on to the next molecule: COc1cc(F)ccc1-c1cc(Nc2cc(CS(C)(=N)=O)ccn2)ncc1F (single isomer, unassigned; (+)) [(+)-BAY-1251152, BAY1251152]
Criterion not met

Likewise for C[C@]12C=CC(=O)C=C1CC[C@@H]1[C@@H]2[C@@H](O)C[C@@]2(C)[C@H]1CC[C@]2(O)C(=O)CO ?
Criterion not met

New cases:
Given CCN(C(=O)c1cc(F)ccc1Oc1cncnc1N1CC2(CCN(C[C@H]3CC[C@H](NS(=O)(=O)CC)CC3)CC2)C1)C(C)C , state whether its Excess HSA Score is at least 200.
Criterion met

Input C[C@@H]1OCC2(CCN(c3cnc(Sc4ccnc(N)c4Cl)c(N)n3)CC2)[C@@H]1N
Criterion met
